- TARGET: sigma-2 receptor (σ2R) (Homo sapiens, UniProt Q5BJF2)
- Sequence (Q5BJF2 whole entry): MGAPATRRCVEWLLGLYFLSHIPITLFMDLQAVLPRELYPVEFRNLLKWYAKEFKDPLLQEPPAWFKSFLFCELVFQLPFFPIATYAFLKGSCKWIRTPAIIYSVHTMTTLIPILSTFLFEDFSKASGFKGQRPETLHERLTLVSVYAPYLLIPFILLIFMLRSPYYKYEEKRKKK
- ASSAY_SUMMARY: σ2R radioligand binding assay
pKi: −log10 of the molar value.
PROPERTY_MEASURED: pKi

[
  {
    "GIVEN_SMILES": "C[C@H]1[C@H]2Cc3ccc(O)cc3[C@]1(C)CCN2CCCC(=O)Nc1ccccc1N",
    "TARGET": "sigma-2 receptor (σ2R) (Homo sapiens, UniProt Q5BJF2)",
    "RESULT": "< 5.00"
  },
  {
    "GIVEN_SMILES": "C[C@@H]1[C@@H]2Cc3ccc(O)cc3[C@@]1(C)CCN2CCC(=O)Nc1ccccn1",
    "TARGET": "sigma-2 receptor (σ2R) (Homo sapiens, UniProt Q5BJF2)",
    "RESULT": "< 5.00"
  },
  {
    "GIVEN_SMILES": "C[C@H]1[C@H]2Cc3ccc(O)cc3[C@]1(C)CCN2CCC(=O)Nc1ccccc1N",
    "TARGET": "sigma-2 receptor (σ2R) (Homo sapiens, UniProt Q5BJF2)",
    "RESULT": "< 5.00"
  },
  {
    "GIVEN_SMILES": "C[C@@H]1[C@@H]2Cc3ccc(O)cc3[C@@]1(C)CCN2CCC(=O)Nc1ccccc1N",
    "TARGET": "sigma-2 receptor (σ2R) (Homo sapiens, UniProt Q5BJF2)",
    "RESULT": "< 5.00"
  },
  {
    "GIVEN_SMILES": "C[C@@H]1[C@@H]2Cc3ccc(O)cc3[C@@]1(C)CCN2CCCC(=O)Nc1ccccc1N",
    "TARGET": "sigma-2 receptor (σ2R) (Homo sapiens, UniProt Q5BJF2)",
    "RESULT": "< 5.00"
  },
  {
    "GIVEN_SMILES": "C[C@H]1[C@H]2Cc3ccc(O)cc3[C@]1(C)CCN2CCC(=O)Nc1ccccn1",
    "TARGET": "sigma-2 receptor (σ2R) (Homo sapiens, UniProt Q5BJF2)",
    "RESULT": "< 5.00"
  }
]

----------
- TARGET: sigma-1 receptor (σ1R) (Homo sapiens, UniProt Q99720)
- Sequence (Q99720 whole entry, species assumed): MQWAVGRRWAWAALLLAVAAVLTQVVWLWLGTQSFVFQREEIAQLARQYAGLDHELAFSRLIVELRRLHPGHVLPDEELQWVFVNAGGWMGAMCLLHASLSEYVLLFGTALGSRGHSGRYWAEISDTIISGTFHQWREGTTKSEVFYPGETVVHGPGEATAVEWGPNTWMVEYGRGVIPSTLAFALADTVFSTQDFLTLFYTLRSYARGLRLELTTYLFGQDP
- ASSAY_SUMMARY: σ1R radioligand binding assay
- MEASUREMENT_CONDITIONS: mean ± SD of at least two experiments in duplicate; read-out: Ki (nM) ± SD σ1R

[
  {
    "MOLECULE": "CN1CCN(CCc2ccc(Cl)c(Cl)c2)CC1 [BD-1063, reference compound]",
    "READOUT_UNITS": "nM",
    "Ki": 14
  }
]

----------
- TARGET: κ opioid receptor (KOR) (Homo sapiens)
- Sequence (P41145 whole entry): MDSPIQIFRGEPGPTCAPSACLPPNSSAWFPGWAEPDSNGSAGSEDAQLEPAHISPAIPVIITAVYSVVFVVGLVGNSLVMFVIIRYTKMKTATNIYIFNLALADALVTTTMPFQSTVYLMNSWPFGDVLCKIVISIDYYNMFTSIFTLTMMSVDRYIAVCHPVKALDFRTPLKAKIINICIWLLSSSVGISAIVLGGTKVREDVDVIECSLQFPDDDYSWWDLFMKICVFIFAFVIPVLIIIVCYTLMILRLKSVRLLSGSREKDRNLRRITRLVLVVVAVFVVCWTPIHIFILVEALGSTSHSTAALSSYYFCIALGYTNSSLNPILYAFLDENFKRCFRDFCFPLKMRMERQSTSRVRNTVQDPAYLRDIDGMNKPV
- ASSAY_SUMMARY: KOR radioligand binding assay
PROPERTY_MEASURED: Ki (µM)

[
  {
    "COMPOUND": "C[C@@H]1[C@@H]2Cc3ccc(O)cc3[C@@]1(C)CCN2CCC(=O)Nc1ccccc1N [Compound 4]",
    "READOUT_UNITS": "µM",
    "MEASURED_NUMBER": 0.154
  },
  {
    "COMPOUND": "C[C@H]1[C@H]2Cc3ccc(O)cc3[C@]1(C)CCN2CCC(=O)Nc1ccccn1 [Compound 7]",
    "READOUT_UNITS": "µM",
    "MEASURED_NUMBER": 0.064
  },
  {
    "COMPOUND": "C[C@H]1[C@H]2Cc3ccc(O)cc3[C@]1(C)CCN2CCC(=O)Nc1ccccc1N [Compound 3]",
    "READOUT_UNITS": "µM",
    "MEASURED_NUMBER": 0.093
  },
  {
    "COMPOUND": "C[C@@H]1[C@@H]2Cc3ccc(O)cc3[C@@]1(C)CCN2CCC(=O)Nc1ccccn1 [Compound 8]",
    "READOUT_UNITS": "µM",
    "MEASURED_NUMBER": 1.38
  }
]
